Value source: paper PMC13376213

Target: USP33 DUSP2 domain (human) (UniProt Q8TEY7)
Sequence (Q8TEY7 whole entry, the tested form may be a part): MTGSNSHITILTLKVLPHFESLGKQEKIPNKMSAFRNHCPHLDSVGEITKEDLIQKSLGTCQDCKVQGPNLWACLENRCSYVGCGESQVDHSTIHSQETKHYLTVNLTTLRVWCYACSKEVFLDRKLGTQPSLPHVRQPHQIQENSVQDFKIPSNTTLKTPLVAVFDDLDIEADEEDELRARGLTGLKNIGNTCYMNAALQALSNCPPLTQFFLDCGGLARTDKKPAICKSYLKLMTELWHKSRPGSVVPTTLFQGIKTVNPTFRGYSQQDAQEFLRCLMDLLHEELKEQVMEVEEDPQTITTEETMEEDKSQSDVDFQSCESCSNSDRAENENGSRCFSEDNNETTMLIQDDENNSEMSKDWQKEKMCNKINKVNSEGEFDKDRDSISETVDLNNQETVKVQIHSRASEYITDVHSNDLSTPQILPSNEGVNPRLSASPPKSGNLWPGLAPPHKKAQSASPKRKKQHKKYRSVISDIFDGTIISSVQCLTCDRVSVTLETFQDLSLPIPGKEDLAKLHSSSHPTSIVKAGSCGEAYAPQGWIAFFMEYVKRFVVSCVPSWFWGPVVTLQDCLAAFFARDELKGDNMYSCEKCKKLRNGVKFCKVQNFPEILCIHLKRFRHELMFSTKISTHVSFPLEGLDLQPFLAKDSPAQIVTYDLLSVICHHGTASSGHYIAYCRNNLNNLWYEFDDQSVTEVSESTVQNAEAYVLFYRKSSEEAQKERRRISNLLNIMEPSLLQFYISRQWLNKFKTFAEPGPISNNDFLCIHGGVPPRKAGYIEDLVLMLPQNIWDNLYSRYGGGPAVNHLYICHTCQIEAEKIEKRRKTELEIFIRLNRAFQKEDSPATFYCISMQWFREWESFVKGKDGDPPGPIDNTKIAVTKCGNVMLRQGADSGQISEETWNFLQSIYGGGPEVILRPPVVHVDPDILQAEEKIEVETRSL
Test: fluorescence polarisation; displacement: serial dilution of the unlabelled peptide against the domain (at two-fold the KD of the FITC-labelled peptide) in complex with 10 nM FITC-labelled peptide; 50 mM phosphate buffer pH 7.4; room temperature; three technical replicates; sigmoidal dose-response fit
pKd: −log10 of the molar value.
quantity.measured: pKd

binder="Ac-PYIPMDKDFQLRSFDQLS-NH2 [HIF1A 564-581 D570K peptide]" quantity_measured=pKd observed=5.00
binder="Ac-DVVDDFQLQHRHGPGY-NH2 [MFSD2B 395-409 peptide]" quantity_measured=pKd observed=6.12
binder="Ac-QLEEELFQLRQGPAGY-NH2 [CCDC88B 947-961 peptide]" quantity_measured=pKd observed=4.40
binder="Ac-SDDDLAWNIAPQGLQ-NH2 [GPR137B 348-362 peptide, unlabelled]" quantity_measured=pKd observed=3.64
binder="Ac-PYIPMDGEDFQLSPICPE-NH2 [HIF2A 531-548 peptide]" quantity_measured=pKd observed=2.93
binder="Ac-PYIPMDDDFQARSFDQLS-NH2 [HIF1A 564-581 L574A peptide]" quantity_measured=pKd observed=3.64
